Give measured apparent KD of MS2 coat protein for each item. Keep answers brief.
Test system: MS2 coat protein
Assay summary: apparent KD of MS2 coat protein, switch OFF state (with FMN for OFF switches, without FMN for ON switches); designed switch direction (-1 OFF switch, 1 ON switch): -1; higher = weaker reporter binding
Stated conditions: FMN input: 0 or 200 uM; Eterna round: R93 (includes R88 designs)
Supply the numeric figure in nM, leaving out any unit text.

Form field: apparent KD of MS2 coat protein recorded for AACAGGUCAGGAUAUGUGGAAAAAAUAAAAAAAAUAAAAACACAGAAGGGACAUGAGGAUCACCCAUGUAAAAA [May 20] with MS2 coat protein (enter value)
75.6

Please give the result for CUCAAGUGAGGAUAUCAGUAGUAAAAAAAUAAAAUUACUACUGAGAAGGCACAUGAGGAUCACCCAUGUGCCAA [EX4 335: Super Stable 35] too.
15.2

Same thing, different sequence: AGGCGGGUAGGAUAUGCGUACUGACGGGAAAACUGAAUGGUACAUGAGGAUCACCCAUGUAGAAGGGCUCUGAA [Dora Explored 23 - Jieux - Exclusion 2]
111

Note, next up: AACAGUACAGGAUAUACAUGAGGAUCACCCAUGUGAGAGGAAUAAAACAAAAAUAAAAGUAGAAGGGUACUGGA [Ruby 45]
106

Also need GAAAAGCGAGGAUAUACAGAAAAAAAAACAAAAAAAGAAAAACAUGAGGAUCACCCAUGUAGAAGGCGCAAAAA [V1] , thanks.
49.4

Another sequence to check: AGAAAACAUGAGGAUCACCCAUGUGAGGAUAUCGAUGUCCAAAAAAAAGUGCGGACCUCGAGAAGGCACAUUGG [Mod of Erbelaed v.3 (favor state 2,lowered kcal by 1)]
51.1

* * *

System: K4 kissing-loop RNA reporter;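 also: bound reporter read as fluorescence of individual clusters on recovered sequencing chips by microscopy, with normalized cluster intensities fitted with a binding model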
Assay summary: apparent KD of K4 kissing-loop reporter; higher = weaker reporter binding
Stated conditions: Eterna round: R107; input ligand: none
Classification field: enter 1 (yes) for apparent KD of K4 kissing-loop reporter values not below 300 nM, 0 (no) for values below it.

Dear colleague, could you confirm whether GUUACGCAUGGAAGGAGCGCUCUCAUACUUAAUAACACAGUGAUGUUGUGAAUUUGUAUAAAGCAGGUAGGUCGCCAUGUGUAAC [Ex Arginine B K4 7] has apparent KD of K4 kissing-loop reporter at or above 300 nM?
1 (yes)

Now try GCGCGGCCCAGUGAUGUUGGGCCUCGGAGACGAGGACCGGUACGGCCGCCACUCGUCCGCGCAGCUGAGGCAAAAGCCUCGGCAA [Omei KL Tryp A SS B v6] .
0 (no)

Also UCGAUGGUCAGCGAUACCAGCCCAGUGAUGUUGGGCACAUGGUUGCGGAAAAUCCCAUUGGGCCCUUGGCAGCGCUUGCAUGGGU [Titiquesan] ?
0 (no)

For AAAAUAAAGGAGUGAUGUUCCAUAUGUGAUACCAGCCACGAAAGUGGCCCUUGGCAGCACUGCCAAGUGGACGAAAACGUCCACA [#OpenEnded 5 #StaticStem #K4Early] then?
0 (no)

Same again, this time with UUUACUCCGAGUGAUGUUCGGCGUAUCUGACGAGGACCGGUACGGCCGCCACUCGGUUCGACUACGAAGGCCUUGGCCACAGAUU
0 (no)

Also, GUUACGCAUGGAAGGAGCGCAGGCUCAACAAGUAGCUCAGUGAUGUUGAGCAUAUUAAUUCUGCAGGUAGGUCGCCAUGUGUAAC [Ex Arginine B K4 26] please.
1 (yes)

What would you report for GGGCCUAUUGAUGCUGGAGCAAUUCUGGAAGGAGCGCUCAAAGGAGCAGGUAGGUCGCCAGUAUGCAAGGGCAGUGAUGUUGCCC [Ersoarxe] ?
0 (no)

Now the same for GGAUAGGACAGAGGAUAUCCAGUGAUGUUGGAGAAUUCUCCUUCAACAUGUCACAAAAGUGGCAUGGGAGAAGGCUGUCCUAUCG [Mod of Eli's FmnBX 29 v2]
0 (no)

Input UGUCAUUGGUCGGCCGCCACUUCAUAAAGAGUGAUGUUCUAAAAGACGGAUCGAAAGAUCUGUCGAAGGACCGGGAUCGAUGACU [FiskerMod 11 - Jieux - Same State - Tryptophan B]
1 (yes)

What about UUGUUUGGUUGAGAGGUUGGGCGAGAUGAUACCAGUAGAGAAGAGUACCCUUGGCAGCAUAGGAGAGAUAUAGUGAUGUUGUAUG [SSTheophA.S] ?
1 (yes)

# repeat for AAGAGUUGACGAAAAGUCAACUCACGAGAAGGAGCGCACGAAAGUGCAGGUAGGUCGCUCAGUCCAGUGAUGUUGGAACAUAAAA [#OpenEnded 7]
0 (no)

For GCCGUAGAUUGAAGGAGCGGUAUGGGCGUUGGCUGAGUGAUGUUCAGGAAAAGUGGCUUCUACCAGGUAGGUCGCAAUCUACGGC then?
0 (no)

// query: CCUAUCUCGUAGGAUACCAGACUAUGAUCUAUGAUCAAUGCCAUCACCGAGUGAUGUUCGGUCCCUUGGCAGCCUAUGAGAUGGG [#13 K4 Theophylline B Exclusion]
0 (no)

Now give it for GGGCGUGGCGCGGCCGCCACUGGGCCUGGGCGCUCGCUGAGUGAUGUUCGUCGGCGGCUGGGUCGUAGGACCGGGUGCUGGUUGG [BDazzled - #7 SS Tryptophan B] too.
1 (yes)

Now consider UGACAUUGCUCAGAUACCAGUCAUGAGGAUCACCCAUGGGCCAAACGUACAAUAAUAAAUGACCCUUGGCAGCUGAGCAAUGUCU [TheoBX 14] and answer again.
0 (no)

// next record GGAGUUACCUGGGAUACCAGCCGGAGGCCCAGAGCUCGGAGUGAUGUUCUGGGAUGUUUCGGCCCUUGGCAGCUCUGGGUCUCCC [#2 Exclusion - Theophylline B Attempt #6 (HarryS)]
1 (yes)

Quick one: CCAUCGCUAUUCGAUACCAGUCAUUUUUUAUUUUUUUUUUUUUUUGGAGUGAUGUUCCAAGACCCUUGGCAGCGAAUAGUGAUGG [whbob_SS_Theo_B_th77]
0 (no)

Also UGACUACAAAAGGAAUAAUCCUAGUGAUGUUAGGAUAUGCUGAUAAGCAGAAGGAACGGAGAUCGAAAGAUCUCAUAUGUAGUCU [whbob_Ex_FMNA__2th192] ?
0 (no)

Can you handle GUCGGGACUCGAGGAUAUCAGUGGAGGCCAGUGAUGUUGGCCGUCCCGGUAGUUAAAAUUUUACCCUGAGAAGGCGAUUUCUGUC [Veceinusqu] next?
0 (no)

Same for UGGCGGCAAGGGUUAUUGGAAAGUAUUCGUCGAGGACCGGUACGGCCGCCACUCGAACACCAGUGAUGUUGGUCUGGUUUAAGCU [Exclusion Tryptophan A GF 22]
1 (yes)

Next record, please: AUACGUUUAAGUGAUACCAGACAUGUGAGUGAUGUUUACAUAUAUAUUUAAUAUUUAGCUGUCCCUUGGCAGCACAGUUUAUUUA [JR_ExcTheophyB_Sub001]
1 (yes)

What do you have for AAAUUGUUUAGAGGAUAUUCUUUAUUCGACAUAACCUUCUAUAAGGUGCAGUGAUGUUGCAAUAUAGGAGAAGGCUGAGCGAUAA [Exclusion FMN B Gf 14] ?
0 (no)

Subsequent entry: GGAUAGGACAGAGGAUAUGGUAGUGAUGUUACCAAACUGGUUAUUAAUGUCAGAAAACUGGCAAAUCCAGAAGGCUGUCCUAUCG [KL-XFMN-B13]
0 (no)

The reported numbers originate from the supplement of paper PMC9170038.
